Biological target: CHO-CHOP luciferase reporter, UPR activation, luminescence
Experiment: CHOP reporter induction, apoptotic UPR branch – CHO-CHOP cells, luciferase luminescence, confirmation (AID 489024);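 further: compounds added alone to reporter cells with no tunicamycin stress co-treatment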
Calls of active or inactive are those of the source.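 How the source made its calls: active means compounds whose mean EC50, the dose giving half the maximal reporter activation, is at or below a set limit; inactive means the rest.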
// one of active, inactive, no free text

Check out these entries, answers already filled in.
CC1(C)CCSC(/C=C/c2ccccc2)=N1 = inactive
O=S(=O)(c1ccc(Cl)cc1)c1snnc1-c1ccccc1 = active
C[C@@H]1CN([C@H](C)CO)C(=O)c2cc(NC(=O)Nc3ccc(C(F)(F)F)cc3)ccc2O[C@H]1CN(C)Cc1ccc(Cl)c(Cl)c1 = inactive
CCc1nc(N=Nc2c(O)[nH]c3ccccc23)c2c3c(sc2n1)CCC3 = active

# input for lookup
Q. // param item: "O=C1Nc2ccccc2/C1=C\C(=O)c1ccccc1" ; yields the recorded call
A. active

----------
Biological target: CHO-CHOP luciferase reporter, UPR activation, luminescence
Assay: CHOP reporter induction, apoptotic UPR branch – CHO-CHOP cells, luciferase luminescence, confirmation (AID 489024);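 further: compounds added alone to reporter cells with no tunicamycin stress co-treatment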
The source made the active and inactive calls.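 Rule for the calls: active = compounds whose mean EC50, the dose giving half the maximal reporter activation, is at or below a set limit; inactive = the rest.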
// one of active, inactive, no free text

COc1ccc(OC)c(N=Cc2c(O)c3ccccc3oc2=O)c1 = active
COC(=O)c1cc(=O)n(Cc2ccc3c(c2)OCO3)c(=Nc2ccc(F)c(Cl)c2)s1 = inactive
C/C(=N\NC(=O)c1cc(-c2cccs2)nc2ccccc12)c1ccccn1 = active
CC1=CC(=O)C(C(C)C)=C/C1=N/OC(=O)c1cccc([N+](=O)[O-])c1 = inactive
CN1C(=O)NC(=O)/C(=C\C=C\c2ccccc2[N+](=O)[O-])C1=O = active

Q. // param item: "COc1ccc(C(=O)Sc2ccc(Cl)cc2)cc1OC" ; yields the recorded call
A. active

Q. // param item: "COc1ccc(NC(=O)c2sc3nc(N4CCOCC4)c4c(c3c2N)CC(C)(C)OC4)c(OC)c1" ; yields the recorded call
A. inactive

Q. // param item: "CSc1nnc(NC(=O)c2nc(S(=O)(=O)Cc3ccccc3F)ncc2Cl)s1" ; yields the recorded call
A. inactive

Q. // param item: "O=C(Oc1c(CN2CCOCC2)cc(Cl)c2cccnc12)c1ccc(F)cc1" ; yields the recorded call
A. inactive

Q. // param item: "N#CC(C#N)=C1C=CC=CN1/C(=C\c1ccccc1)C(=O)c1cccs1" ; yields the recorded call
A. inactive

----------
Molecular target: CHO-CHOP luciferase reporter, UPR activation, luminescence
Experiment: CHOP reporter induction, apoptotic UPR branch – CHO-CHOP cells, luciferase luminescence, confirmation (AID 489024);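 further: compounds added alone to reporter cells with no tunicamycin stress co-treatment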
The source made the active and inactive calls.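 How the source made its calls: active means compounds whose mean EC50, the dose giving half the maximal reporter activation, is at or below a set limit; inactive means the rest.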
// one of t = active, f = inactive, no free text

Check out these entries, answers already filled in.
CCOC(=O)/C(=C\c1ccc(Cl)cc1)c1nc2sc(C)c(C)c2c(=O)[nH]1 = f
CCOC(=O)c1ccc(N=C2C(=S)N(c3ccc(C(=O)OCC)cc3)C(=N)N2/N=C/c2ccccc2)cc1 = f
S=C(Nc1ccccc1)c1ccccn1 = t
COc1cccc(/C=N/Nc2nc(Nc3ccccc3)nc(-n3nc(C)cc3C)n2)c1O = t
Cc1cccc(Cn2cc(/C=C/[N+](=O)[O-])c3ccccc32)c1 = t
COC(=O)c1ccc(COc2ccccc2/C=C(\C#N)C(=O)Nc2c(C)cccc2C)cc1 = t
O=C(Nc1ccc(S(=O)(=O)N2CCOCC2)cc1)c1ccc([N+](=O)[O-])o1 = t
CCSC1(SCC)N=C(N)C2(C#N)C(c3ccc(OC)c(OC)c3OC)C12C#N (centres undefined) = t

Q. // param item: "Cc1c(C(=O)c2cccc3ccccc23)c2cccc3c2n1[C@H](CN1CCOCC1)CO3" ; yields the recorded call
A. t

Q. // param item: "Oc1ccc(-c2nc(-c3ccc(O)c(O)c3)cs2)cc1" ; yields the recorded call
A. t

Q. // param item: CC1CCCCC1N1CN=C(Nc2nc3ccccc3s2)NC1 (centres undefined) ; yields the recorded call
A. f

Q. // param item: "Cc1ccc(C(=O)C(C(=O)/C=C/c2ccccc2)=C2SCCCS2)cc1" ; yields the recorded call
A. t

Q. // param item: "O=C(c1cccs1)N(C(=O)c1cccs1)c1ccc(Br)cn1" ; yields the recorded call
A. t

Q. // param item: "COc1cccc(N=Cc2c(O)c3ccccc3oc2=O)c1" ; yields the recorded call
A. t

----------
Target: CHO-CHOP luciferase reporter, UPR activation, luminescence
Assay: CHOP reporter induction, apoptotic UPR branch – CHO-CHOP cells, luciferase luminescence, confirmation (AID 489024);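 further: compounds added alone to reporter cells with no tunicamycin stress co-treatment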
pEC50: −log10 of the molar value.
Decide using pEC50: a value greater than or equal to 5 is yes, a smaller one is no.

Oc1c(Cl)cc(CN2CCCCC2)c2cccnc12 = no

Q. Could you tell me if the measured pEC50 of "O=C(N/N=C/c1ccccn1)c1ccc(Cl)c(Cl)c1" reaches 5 or more?
A. yes

----------
Biological target: CHO-CHOP luciferase reporter, UPR activation, luminescence
Experiment: CHOP reporter induction, apoptotic UPR branch – CHO-CHOP cells, luciferase luminescence, confirmation (AID 489024);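 further: compounds added alone to reporter cells with no tunicamycin stress co-treatment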
Calls of active or inactive are those of the source.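 The calls were made as follows: active = compounds whose mean EC50, the dose giving half the maximal reporter activation, is at or below a set limit; inactive = the rest.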
// one of true (1) (active), false (0) (inactive), no free text

COC(=O)C1=C(C)N(c2ccc(C)c(C)c2)/C(=C/c2ccco2)C1=O = true (1)
CSc1nnc(NC(=O)c2nc(S(=O)(=O)Cc3cccc(C)c3)ncc2Cl)s1 = false (0)

# input for lookup
Q. // param item: "O=C1NC(=O)N(c2ccccc2)C(=O)/C1=C\C=C\c1ccccc1" ; yields the recorded call
A. true (1)

----------
Biological target: CHO-CHOP luciferase reporter, UPR activation, luminescence
Experiment: CHOP reporter induction, apoptotic UPR branch – CHO-CHOP cells, luciferase luminescence, confirmation (AID 489024);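 further: compounds added alone to reporter cells with no tunicamycin stress co-treatment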
Activity calls are given as the source filed them.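 The calls were made as follows: active = compounds whose mean EC50, the dose giving half the maximal reporter activation, is at or below a set limit; inactive = the rest.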
// one of 1.0 (active), 0.0 (inactive), no free text

Check out these entries, answers already filled in.
CC1=NOC(=O)/C1=C\c1ccc(-c2ccc(Cl)cc2Cl)o1 = 1.0
O=C1C=CC(=O)C(C2=C3C(=O)N(CCc4ccccc4)CC(=O)N3CCC2)=C1 = 1.0
COc1ccc(Cn2c(SCc3ccc(C)cc3)nc3cc(OC)c(OC)cc3c2=N)cc1Cl = 1.0
O=C(CCl)Nc1cccc(CP(=O)(c2ccccc2)c2ccccc2)c1 = 0.0
O=C(NC1CCCC1)C(c1ccc(Cl)cc1)N(Cc1ccc(F)cc1)C(=O)CCl (stereo unspecified) = 1.0

Q. // param item: "COc1cccc2sc(Nc3nnc(-c4cccs4)o3)nc12" ; yields the recorded call
A. 1.0

Q. // param item: "CC1(C)C=Cc2c(c3c(c4c(=O)c(-c5ccc(O)cc5)coc24)OC(C)(C)CC3)O1" ; yields the recorded call
A. 1.0

Q. // param item: "O=C1/C(=C/c2ccc(N3CCOCC3)o2)SC(=Nc2ccccc2)N1CCc1c[nH]c2ccccc12" ; yields the recorded call
A. 1.0

Q. // param item: "Cc1ccccc1CS(=O)(=O)c1ncc(Cl)c(C(=O)Nc2ccc(F)cc2)n1" ; yields the recorded call
A. 0.0

Q. // param item: "COc1ccc(-c2oc(NC(=O)CCl)c(C#N)c2-c2ccc(OC)cc2)cc1" ; yields the recorded call
A. 1.0

Q. // param item: "O=S(=O)(Nc1cccc2cccnc12)c1ccccc1" ; yields the recorded call
A. 1.0

Q. // param item: "O=C(N/N=C/c1ccccn1)c1cc([N+](=O)[O-])cc([N+](=O)[O-])c1" ; yields the recorded call
A. 0.0

Q. // param item: COc1ccc(C(=O)C(CN2CCOCC2)c2ccccc2)cc1 (stereo unspecified) ; yields the recorded call
A. 0.0

Q. // param item: COc1cc(/C=C2\CC(C(C)(C)C)C/C(=C\c3cc(OC)c(OC)c(OC)c3)C2=O)cc(OC)c1OC (stereo unspecified) ; yields the recorded call
A. 1.0

Q. // param item: "O=C(/C=C/c1ccco1)NC(=S)Nc1ccc(O)c(-c2nc3ccccc3s2)c1" ; yields the recorded call
A. 1.0

Q. // param item: "CCN(CC)c1ccc(C=C2C(=O)NC(=S)NC2=O)cc1" ; yields the recorded call
A. 1.0

----------
Target: CHO-CHOP luciferase reporter, UPR activation, luminescence
Test: CHOP reporter induction, apoptotic UPR branch – CHO-CHOP cells, luciferase luminescence, confirmation (AID 489024);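 further: compounds added alone to reporter cells with no tunicamycin stress co-treatment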
Active and inactive are the calls of the source.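 Rule for the calls: active = compounds whose mean EC50, the dose giving half the maximal reporter activation, is at or below a set limit; inactive = the rest.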
// one of 1.0 (active), 0.0 (inactive), no free text

Check out these entries, answers already filled in.
COc1cc(/C=C/[N+](=O)[O-])ccc1O = 0.0
Cn1c(-c2cccc(OCc3ccccc3)c2)nc2c1c(=O)[nH]c(=O)n2Cc1ccccc1 = 1.0
O=C(C[C@H]1C[C@H](C(=O)N2CCCCC2)[C@@]2(CCc3ccccc3)c3[nH]c4ccc(Cl)cc4c3CCN2C1=O)NCCC1=CCCCC1 = 0.0
CCCCC(CC)CN=C(N)NC(N)=NCCCCCCN=C(N)NC(N)=NCC(CC)CCCC (stereo not given) = 0.0
COc1ccc(NS(=O)(=O)c2ccc3ccccc3c2)c2ncccc12 = 1.0

Q. // param item: N#CC12COC3(CCCCC3C1(C#N)C#N)OC2=N (stereo not given) ; yields the recorded call
A. 0.0

Q. // param item: "CCc1cccc2sc(N3CCN(C(=O)c4ccc([N+](=O)[O-])o4)CC3)nc12" ; yields the recorded call
A. 1.0

Q. // param item: "Cc1cc(C)nc(SCc2ccc(C(=O)N/N=C/c3cccc(O)c3O)cc2)n1" ; yields the recorded call
A. 1.0

Q. // param item: "Cc1ccc(CS(=O)(=O)c2ncc(Cl)c(C(=O)Nc3ccc(OC(F)F)cc3)n2)cc1" ; yields the recorded call
A. 0.0

Q. // param item: "COc1ccc(-n2c(C)cc(C(=O)CCl)c2C)cc1" ; yields the recorded call
A. 1.0
